Origin of the recorded values: patent US20260028391A1

Item-by-item account of EC50
Target: T1, DS-Cav1 RSV F (respiratory syncytial virus)
T1 construct: also called DC-VCav1
Test: ELISA on DS-Cav1 RSV F

Consider the worked cases shown below.
State its EC50 for this binder: MPH12 VH-FRGL / MPH12 VL-S26A (antibody, V domains shown, MPH12 variant; VH and VL only) VH: QVQLVESGGGLVKPGGSLRLSCAASGFTFSGFYMKWIRQAPGKGLEWVSSISASGSYTNYADSVEGRFTISRDNAKNSLYLQMNSLRAEDTAVYYCARGDSYCGASACHGEFFHKWGQGTLVTVSS VL: QSVLTQPPSVSGAPGQRVTISCTGSDANIGADFDVHWYQQLPGTAPKLLIYGNINRPSGVPDRFSGSRSGTSAFLAITRLQAEDEADYYCQSYDRSLHYVFGAGTKVTVL
0.0397 µg/mL

State its EC50 for this binder: MPH12 (antibody, IgG1, V domains shown, also called WT; parental MPH12-wt) VH: QVQLVESGGGLVKPGGSLRLSCVASGFTFSGFYMKWIRQAPGKGLEWVSSISASGSYTNYADSVEGRFTVSRDNAKNSLFLLMSSLRAEDTAVYYCARGDSYCGASACHGEFFHKWGQGTLVTVSS VL: QSVLTQPPSVSGAPGQRVTISCTGSDSNIGADFDVHWYQQLPGTAPKLLIYGNINRPSGVPDRFSGSRSGTSAFLAITRLQAEDEADYYCQSYDRSLHYVFGAGTKVTVL
0.0326 µg/mL

The record that follows has no EC50 shown yet.
State its EC50 for this binder: MPH12 VH-S63A / MPH12 VL-S26A (antibody, V domains shown, MPH12 variant; VH and VL only) VH: QVQLVESGGGLVKPGGSLRLSCVASGFTFSGFYMKWIRQAPGKGLEWVSSISASGSYTNYADAVEGRFTVSRDNAKNSLFLLMSSLRAEDTAVYYCARGDSYCGASACHGEFFHKWGQGTLVTVSS VL: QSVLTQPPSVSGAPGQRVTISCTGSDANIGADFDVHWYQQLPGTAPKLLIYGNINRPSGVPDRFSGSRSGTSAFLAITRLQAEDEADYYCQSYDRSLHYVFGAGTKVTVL
0.0258 µg/mL
